Data credit: paper PMC4681344

# MEASUREMENT_PROTOCOL: Stability in aqueous solution
# Type: physicochemical
# RUN_CONDITIONS: 37°C, read-out: Half-life in aqueous solutions
ATTRIBUTE_MEASURED: half-life

IN: // half-life lookup, key: O=C(/C=C/N1C[C@H]2C[C@@H]1CN2c1ccccn1)c1ccccc1O [PFI-3]
OUT: > 168 h
